- test method notes: Metabolic stability in rat microsomes
- Type: in vitro ADME
- settings: rat, pooled rat microsomes, pH 7.4; 250 nM compound, NADPH, 37 °C; read-out: metabolic stability in rat microsomes T1/2
# Lookup of reported half-life at 1 h, 0.25 µM keyed by entry

# molecule, unit annotation, half-life at 1 h, 0.25 µM
measured = [
    ("COc1cc(N2CCC(N3CCN(CC4CCN(c5ccc6c(c5)CN(C5CCC(=O)NC5=O)C6=O)CC4)CC3)CC2)ccc1Nc1ncc(Cl)c(Nc2ccccc2P(C)(C)=O)n1 (centres unmarked)", "h", 1.33),
    ("COc1cc(N2CCN(CC3CCN(c4ccc5c(c4)C(=O)N(C4CCC(=O)NC4=O)C5=O)CC3)CC2)ccc1Nc1ncc(Cl)c(Nc2ccccc2P(C)(C)=O)n1 (centres unmarked)", "h", 0.3),
    ("COc1cc(N2CCC(N3CCN(CC4CCN(c5ccc6c(c5)C(=O)N(C5CCC(=O)NC5=O)C6=O)CC4)CC3)CC2)ccc1Nc1ncc(Cl)c(Nc2ccccc2P(C)(C)=O)n1 (centres unmarked)", "h", 2.62),
    ("COc1cc(N2CCC(N3CCN(CC4CN(c5ccc6c(c5)C(=O)N(C5CCC(=O)NC5=O)C6=O)C4)CC3)CC2)ccc1Nc1ncc(Cl)c(Nc2ccccc2P(C)(C)=O)n1 (centres unmarked)", "h", 1.8),
    ("COc1cc(N2CCN(CC3CN(c4ccc5c(c4)CN(C4CCC(=O)NC4=O)C5=O)C3)CC2)ccc1Nc1ncc(Cl)c(Nc2ccccc2P(C)(C)=O)n1 (centres unmarked)", "h", 2.41),
]
